MEASURED_ON: Multidrug efflux pump subunit AcrB (Escherichia coli (strain K12))
ASSAY_PROTOCOL: Inhibition of AcrB in multidrug-resistant Escherichia coli BW25113 assessed as potentiation of tetraphenylphosphonium-induced antibacterial activity by measuring tetraphenylphosphonium MIC at 32 ug/ml by checkerboard titration method (reference value: 1024 ug/ml)
STUDY_CONDITIONS: dose 32.0 µg/ml
PROPERTY_NAME: MIC
Number first, unit second: that is the form wanted.

Recorded MIC, per entry:
* CNC(=O)c1ccc(COc2cccc3c4c(c(Cn5cnnn5)cc23)CCC(C)(C)O4)cc1 | 1020 µg/mL
* CC1(C)CC(=O)c2ccc(OCC(=O)Nc3ccc(C#N)c(C(F)(F)F)c3)cc2O1 | 512 µg/mL
* Cc1ccc(COc2cccc3c4c(c(-c5nnco5)cc23)CCC(C)(C)O4)cc1 | 512 µg/mL
* CC1(C)CCc2c(Cn3cnnn3)cc3c(OCc4ccc(OC(F)(F)F)cc4)cccc3c2O1 | 1020 µg/mL

Okay, next one:
Consider the molecule CC1CN(C(=O)c2cc3c(OCc4ccc(Br)cc4)cccc3c3c2CCC(C)(C)O3)CC(C)O1 (stereo not given) and give its measured MIC. 1020 µg/mL

###

MEASURED_ON: Multidrug efflux pump subunit AcrB (Escherichia coli (strain K12))
STUDY_CONDITIONS: Escherichia coli BW25113; dose 16.0 µg/ml
PROPERTY_NAME: MIC (µg/mL)
Your answer is read as µg/mL, so omit the unit and give the number.

• CC(C)NCCOc1ccc2c(c1)OC(C)(C)CC2=O = 16

Consider the compound CC1(C)CCc2c(-c3nnco3)cc3c(OCc4ccc(C#N)cc4)cccc3c2O1 and give its measured MIC. 16

// query: CC1CN(C(=O)c2cc3c(OCc4c(Cl)cccc4Cl)cccc3c3c2CCC(C)(C)O3)CC(C)O1 (stereo not given) 16

// query: CC1(C)CCc2c(-c3nnco3)cc3c(OCc4ccccc4)cccc3c2O1 16

// query: CC1(C)CCc2c(C(=O)N3CCOCC3)cc3c(OCc4ccccc4)cccc3c2O1 16

###

MEASURED_ON: Multidrug efflux pump subunit AcrB (Escherichia coli (strain K12)) (UniProt P31224)
ASSAY_PROTOCOL: Inhibition of AcrB in multidrug-resistant Escherichia coli BW25113 assessed as potentiation of levofloxacin-induced antibacterial activity by measuring levofloxacin MIC at 64 ug/ml by checkerboard titration method (reference value: 0.06 ug/ml)
STUDY_CONDITIONS: dose 64.0 µg/ml
Measured MIC, listed per entry for reference.
Your answer is read as µg/mL, so omit the unit and give the number.

Missing value: MIC, Multidrug efflux pump subunit AcrB (Escherichia coli (strain K12)) (UniProt P31224), entry CC(C)NCCOc1ccc2c(c1)OC(C)(C)CC2=O . Fill in? 0.03

###

MEASURED_ON: Multidrug efflux pump subunit AcrB (Escherichia coli (strain K12))
Sequence (whole entry): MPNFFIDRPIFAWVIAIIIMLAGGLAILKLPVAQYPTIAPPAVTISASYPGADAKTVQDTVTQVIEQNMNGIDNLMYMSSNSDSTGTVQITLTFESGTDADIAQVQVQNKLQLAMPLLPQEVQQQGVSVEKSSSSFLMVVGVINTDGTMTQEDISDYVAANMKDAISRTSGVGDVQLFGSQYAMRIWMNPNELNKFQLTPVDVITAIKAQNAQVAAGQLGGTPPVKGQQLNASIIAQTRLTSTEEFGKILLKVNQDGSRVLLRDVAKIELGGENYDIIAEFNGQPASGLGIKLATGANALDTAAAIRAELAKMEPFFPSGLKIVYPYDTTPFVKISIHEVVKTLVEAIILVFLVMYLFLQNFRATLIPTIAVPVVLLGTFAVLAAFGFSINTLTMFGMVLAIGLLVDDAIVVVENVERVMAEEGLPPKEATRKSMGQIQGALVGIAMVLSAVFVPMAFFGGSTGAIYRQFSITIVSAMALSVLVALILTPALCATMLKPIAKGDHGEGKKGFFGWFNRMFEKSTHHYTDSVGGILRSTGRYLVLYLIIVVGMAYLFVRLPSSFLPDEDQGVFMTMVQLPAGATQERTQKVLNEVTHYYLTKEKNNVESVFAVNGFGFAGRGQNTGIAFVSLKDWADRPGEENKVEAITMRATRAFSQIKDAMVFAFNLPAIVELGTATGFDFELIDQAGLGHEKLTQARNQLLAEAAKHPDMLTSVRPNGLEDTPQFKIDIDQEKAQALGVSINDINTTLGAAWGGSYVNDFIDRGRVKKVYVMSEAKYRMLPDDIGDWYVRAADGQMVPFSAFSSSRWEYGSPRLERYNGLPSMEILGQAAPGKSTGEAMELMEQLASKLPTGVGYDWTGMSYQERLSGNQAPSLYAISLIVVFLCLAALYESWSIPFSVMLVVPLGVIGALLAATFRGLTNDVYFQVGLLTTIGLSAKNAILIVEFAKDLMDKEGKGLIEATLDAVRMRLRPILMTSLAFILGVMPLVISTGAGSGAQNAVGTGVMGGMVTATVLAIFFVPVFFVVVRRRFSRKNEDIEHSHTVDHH
ASSAY_PROTOCOL: Inhibition of AcrB in multidrug-resistant Escherichia coli BW25113 assessed as potentiation of tetraphenylphosphonium-induced antibacterial activity by measuring tetraphenylphosphonium MIC at 16 ug/ml by checkerboard titration method (reference value: 1024 ug/ml)
STUDY_CONDITIONS: dose 16.0 µg/ml
PROPERTY_NAME: MIC (µg/mL)
Your answer is read as µg/mL, so omit the unit and give the number.

Recorded MIC, per entry:
- COc1cccc(COc2cccc3c4c(c(C(=O)O)cc23)CCC(C)(C)O4)c1: 1020
- CC1(C)CCc2c(Cn3cnnn3)cc3c(OCc4ccc([N+](=O)[O-])cc4)cccc3c2O1: 1020
- CC1(C)CCc2c(C(=O)N3CCOCC3)cc3c(OCc4ccc(C(F)(F)F)cc4)cccc3c2O1: 512
- Cc1ccc(COc2cccc3c4c(c(-c5nnco5)cc23)CCC(C)(C)O4)cc1: 512
- CC1(C)CCc2c(Cn3cnnn3)cc3c(OCc4ccccc4)cccc3c2O1: 1020

Consider the compound CC1(C)CCc2c(Cn3cnnn3)cc3c(OCc4ccc(OC(F)(F)F)cc4)cccc3c2O1 and give its measured MIC. 1020

// query: Cc1ccccc1COc1cccc2c3c(c(-c4nnco4)cc12)CCC(C)(C)O3 512

// query: CC1CN(C(=O)c2cc3c(OCc4c(Cl)cccc4Cl)cccc3c3c2CCC(C)(C)O3)CC(C)O1 (stereo not given) 1020
